Attribution: patent US20120214847A1

Below, each entry is listed alongside its reported Ki.
- subject of test: glucocorticoid receptor (Homo sapiens, UniProt P04150)
- Construct: endogenous in cells; host or cells: HeLa (ATCC) cell lysate supernatant
- assay info: Ligand binding assay (GRBind), 3H-dexamethasone displacement in HeLa cell lysate
- run conditions: 3H-DEX tracer
observable: Ki (nM)

1. CC[C@]12Cc3cnn(-c4ccc(F)cc4)c3C=C1CC[C@@]2(O)CCc1ncccc1S(C)(=O)=O: 1.32
2. CC[C@]12Cc3cnn(-c4cccnc4)c3C=C1CC[C@@]2(O)CCc1ccccc1C#N: 2.01
3. NC(=O)Cc1c(F)cccc1CC[C@]1(O)CCC2=Cc3c(cnn3-c3ccc(F)cc3)C[C@@]21C1CC1: 2.08
4. N#Cc1ccnc(CC[C@]2(O)CCC3=Cc4c(cnn4-c4ccc(F)cc4)C[C@@]32C2CC2)c1: 1.99
5. O=S(=O)(c1ccccc1CC[C@]1(O)CCC2=Cc3c(cnn3-c3ccc(F)cc3)C[C@@]21C1CC1)C1CC1: 1.69
6. OC(C[C@]1(O)CCC2=Cc3c(cnn3-c3ccc(F)cc3)C[C@@]21C1CC1)c1ccc(F)cn1 (single isomer, unassigned) [Example 79a]: 2.83
7. CC[C@]12Cc3cnn(-c4ccccc4)c3C=C1CC[C@@]2(O)CC(O)c1ccccn1 (single isomer, unassigned) [Example 82a]: 11.3
8. NC(=O)CNC(=O)c1cc(F)cnc1CC[C@]1(O)CCC2=Cc3c(cnn3-c3ccc(F)cc3)C[C@@]21C1CC1: 4.6
9. CC[C@]12Cc3cnn(-c4ccc(F)cc4)c3C=C1CC[C@@]2(O)CC(O)c1cncc(F)c1 (stereo partly drawn): 5.67
10. CC[C@]12Cc3cnn(-c4ccc(F)cc4)c3C=C1CC[C@@]2(O)CCc1ccccc1S(=O)(=O)CC: 2.45
11. CC[C@]12Cc3cnn(-c4ccccc4)c3C=C1CC[C@@]2(O)CCc1ccc(F)cc1C(N)=O: 3.17
12. NC(=O)c1ccccc1CC[C@]1(O)CCC2=Cc3c(cnn3-c3ccc(F)cc3)C[C@@]21C1CC1: 1.8
13. COc1cccc(CC[C@]2(O)CCC3=Cc4c(cnn4-c4ccc(F)cc4)C[C@@]32C2CC2)c1C(N)=O: 1.25
14. O=C(NCCO)c1ccccc1CC[C@]1(O)CCC2=Cc3c(cnn3-c3ccc(F)cc3)C[C@@]21C1CC1: 2.09
15. OC(C[C@]1(O)CCC2=Cc3c(cnn3-c3ccc(F)cc3)C[C@@]21C1CC1)c1ccccn1 (stereo partly drawn): 2.96

----------
- subject of test: human GR (Homo sapiens, UniProt P04150)
- Construct: naturally expresses the human GR; endogenous in cells
- assay info: Transrepression assay (GITAR), TNFα-β-lactamase reporter in U937 cells
- Assay type: cell-based
- run conditions: U937 cells; IP = inflection point
Cut-off 50 nM on EC50: below means Criterion met, at or above means Criterion not met.

1. NC(=O)C(O)c1ccccc1CC[C@]1(O)CCC2=Cc3c(cnn3-c3ccc(F)cc3)C[C@@]21C1CC1 (single isomer, unassigned) [Example 3b]: Criterion not met
2. O[C@@]1(CCc2cc(C(F)(F)F)ccn2)CCC2=Cc3c(cnn3-c3ccc(F)cc3)C[C@@]21C1CC1: Criterion not met
3. CC[C@]12Cc3cnn(-c4ccc(F)cc4)c3C=C1CC[C@@]2(O)CCc1ccccn1: Criterion not met
4. CC[C@]12Cc3cnn(-c4ccc(F)cc4)c3C=C1CC[C@@]2(O)CCc1cc(C(F)(F)F)ccn1: Criterion not met
5. CC[C@]12Cc3cnn(-c4cccnc4)c3C=C1CC[C@@]2(O)CCc1cccc(F)c1C#N: Criterion not met
6. CC[C@]12Cc3cnn(-c4ccc(F)cc4)c3C=C1CC[C@@]2(O)CC(O)c1ncccc1F (stereo partly drawn) [Example 76]: Criterion not met
7. NC(=O)Cc1ccccc1CC[C@]1(O)CCC2=Cc3c(cnn3-c3ccc(F)cc3)C[C@@]21C1CC1: Criterion not met
8. CC[C@]12Cc3cnn(-c4ccc(F)cc4)c3C=C1CC[C@@]2(O)CC(O)c1ncccc1Cl (stereo partly drawn): Criterion not met
9. NC(=O)CNC(=O)c1ccccc1CC[C@]1(O)CCC2=Cc3c(cnn3-c3ccc(F)cc3)C[C@@]21C1CC1: Criterion met
10. CC[C@]12Cc3cnn(-c4ccc(F)cc4)c3C=C1CC[C@@]2(O)CCc1ncccc1S(C)(=O)=O: Criterion not met
11. NC(=O)Cc1c(F)cccc1CC[C@]1(O)CCC2=Cc3c(cnn3-c3ccc(F)cc3)C[C@@]21C1CC1: Criterion met
12. NS(=O)(=O)c1ccccc1CC[C@]1(O)CCC2=Cc3c(cnn3-c3cccnc3)C[C@@]21C1CC1: Criterion met
13. NC(=O)c1c(C2CC2)ccnc1CC[C@]1(O)CCC2=Cc3c(cnn3-c3ccc(F)cc3)C[C@@]21C1CC1: Criterion met
14. CC[C@]12Cc3cnn(-c4ccc(F)cc4)c3C=C1CC[C@@]2(O)CCc1ccccc1C(O)C(N)=O (stereo partly drawn) [Example 25]: Criterion not met
15. N#Cc1ccccc1CC[C@]1(O)CCC2=Cc3c(cnn3-c3cccnc3)C[C@@]21C1CC1: Criterion not met
16. CC[C@]12Cc3cnn(-c4ccc(F)cc4)c3C=C1CC[C@@]2(O)CCc1cccc(OC)c1C(N)=O: Criterion met
17. COc1ccnc(CC[C@]2(O)CCC3=Cc4c(cnn4-c4ccc(F)cc4)C[C@@]32C2CC2)c1C(N)=O: Criterion met

----------
- subject of test: human GR (Homo sapiens, UniProt P04150)
- Construct: naturally expresses the human GR; endogenous in cells
- Sequence (P04150 1-777): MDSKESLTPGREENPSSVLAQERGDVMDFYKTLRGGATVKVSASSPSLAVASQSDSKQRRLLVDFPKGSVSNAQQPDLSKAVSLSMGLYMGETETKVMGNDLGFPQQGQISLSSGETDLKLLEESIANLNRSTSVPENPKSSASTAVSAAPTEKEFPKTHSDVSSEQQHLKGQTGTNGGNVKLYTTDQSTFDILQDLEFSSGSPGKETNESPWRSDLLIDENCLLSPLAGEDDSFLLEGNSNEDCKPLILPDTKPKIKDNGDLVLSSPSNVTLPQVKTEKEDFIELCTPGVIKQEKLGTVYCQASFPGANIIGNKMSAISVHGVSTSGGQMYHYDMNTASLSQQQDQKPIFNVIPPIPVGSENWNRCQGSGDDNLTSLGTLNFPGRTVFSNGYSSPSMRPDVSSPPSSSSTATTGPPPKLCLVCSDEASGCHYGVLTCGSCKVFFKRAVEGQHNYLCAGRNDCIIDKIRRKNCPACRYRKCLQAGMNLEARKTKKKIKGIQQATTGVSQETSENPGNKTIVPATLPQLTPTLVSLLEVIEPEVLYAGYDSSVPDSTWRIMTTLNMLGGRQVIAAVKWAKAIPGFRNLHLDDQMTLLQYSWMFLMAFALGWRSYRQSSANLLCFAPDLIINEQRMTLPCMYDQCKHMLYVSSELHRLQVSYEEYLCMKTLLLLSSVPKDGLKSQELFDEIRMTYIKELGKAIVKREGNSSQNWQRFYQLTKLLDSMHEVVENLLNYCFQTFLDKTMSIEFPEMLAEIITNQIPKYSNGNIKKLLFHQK
- assay info: Trans-activation modulation of glucocorticoid receptor (GRAMMER), MMTV-LUC reporter in A549 cells
- Format: cell-based
- run conditions: A549 cells; IP = inflection point; read-out: Transactivation A549 Cells Grammer IP
pEC50: −log10 of the molar value.
observable: pEC50

1) NC(=O)c1ccccc1CC[C@]1(O)CCC2=Cc3c(cnn3-c3cccc(F)c3)C[C@@]21C1CC1: 6.84
2) CC(C)(CO)NC(=O)c1cc(F)cnc1CC[C@]1(O)CCC2=Cc3c(cnn3-c3ccc(F)cc3)C[C@@]21C1CC1: 7.59
3) NC(=O)c1c(C2CC2)ccnc1CC[C@]1(O)CCC2=Cc3c(cnn3-c3ccc(F)cc3)C[C@@]21C1CC1: 8.05
4) NC(=O)c1cc(F)cnc1CC[C@]1(O)CCC2=Cc3c(cnn3-c3ccc(F)cc3)C[C@@]21C1CC1: 6.94

----------
- subject of test: human GR (Homo sapiens)
- Construct: naturally expresses the human GR; endogenous in cells
- assay info: Transrepression assay (GITAR), TNFα-β-lactamase reporter in U937 cells
- Type: cell-based
- run conditions: U-937, U937 cells; activity repressed by 100 nM dexamethasone alone set as 100%
observable: Emax

1) CC[C@]12Cc3cnn(-c4ccc(F)cc4)c3C=C1CC[C@@]2(O)CCc1ncccc1S(C)(=O)=O: 70%
2) CS(=O)(=O)c1ccccc1CC[C@]1(O)CCC2=Cc3c(cnn3-c3ccc(F)cc3)C[C@@]21C1CC1: 88%
3) NC(=O)c1ccccc1CC[C@]1(O)CCC2=Cc3c(cnn3-c3ccccc3)C[C@@]21C1CC1: 69%
4) O[C@@]1(CCc2cc(C(F)(F)F)ccn2)CCC2=Cc3c(cnn3-c3ccc(F)cc3)C[C@@]21C1CC1: 83%
5) CC[C@]12Cc3cnn(-c4ccc(F)cc4)c3C=C1CC[C@@]2(O)CCc1ncccc1C(N)=O: 85%
6) NC(=O)c1ccccc1CC[C@]1(O)CCC2=Cc3c(cnn3-c3cccc(F)c3)C[C@@]21C1CC1: 67%
7) N#Cc1ccccc1CC[C@]1(O)CCC2=Cc3c(cnn3-c3cccnc3)C[C@@]21C1CC1: 63%
8) O=C(NC1(CO)CC1)c1ccccc1CC[C@]1(O)CCC2=Cc3c(cnn3-c3ccc(F)cc3)C[C@@]21C1CC1: 90%
9) CC[C@]12Cc3cnn(-c4ccc(F)cc4)c3C=C1CC[C@@]2(O)CCc1ccccc1S(=O)(=O)C(C)C: 83%
10) CC[C@]12Cc3cnn(-c4ccc(F)cc4)c3C=C1CC[C@@]2(O)CCc1nccc(OC)c1CC(N)=O: 77%
11) NC(=O)CNC(=O)c1cccnc1CC[C@]1(O)CCC2=Cc3c(cnn3-c3ccc(F)cc3)C[C@@]21C1CC1: 86%
12) CC[C@]12Cc3cnn(-c4cccnc4)c3C=C1CC[C@@]2(O)CCc1cccc(F)c1C#N: 64%
13) CC[C@]12Cc3cnn(-c4ccc(F)cc4)c3C=C1CC[C@@]2(O)CCc1ccccc1S(=O)(=O)CC: 83%
14) CC[C@]12Cc3cnn(-c4ccc(F)cc4)c3C=C1CC[C@@]2(O)CC1OC(=O)c2ccccc21 (some centres unmarked): 74%
15) CC[C@]12Cc3cnn(-c4ccc(F)cc4)c3C=C1CC[C@@]2(O)CCc1ncc(F)cc1C(N)=O: 86%
16) COc1cccc(CC[C@]2(O)CCC3=Cc4c(cnn4-c4ccc(F)cc4)C[C@@]32C2CC2)c1C(N)=O: 74%
17) O=S(=O)(c1ccccc1CC[C@]1(O)CCC2=Cc3c(cnn3-c3ccc(F)cc3)C[C@@]21C1CC1)C1CC1: 75%
18) NC(=O)C(O)c1ccccc1CC[C@]1(O)CCC2=Cc3c(cnn3-c3ccc(F)cc3)C[C@@]21C1CC1 (single isomer, unassigned): 85%
19) CC[C@]12Cc3cnn(-c4ccccc4)c3C=C1CC[C@@]2(O)CCc1cccc(F)c1C#N: 89%
20) CC[C@]12Cc3cnn(-c4cccc(F)c4)c3C=C1CC[C@@]2(O)CCc1cccc(F)c1C(N)=O: 87%
21) CC[C@]12Cc3cnn(-c4ccc(F)cc4)c3C=C1CC[C@@]2(O)CCc1ccc(F)cn1: 77%
22) NC(=O)c1cc(F)ccc1CC[C@]1(O)CCC2=Cc3c(cnn3-c3ccc(F)cc3)C[C@@]21C1CC1: 71%
23) CC[C@]12Cc3cnn(-c4ccc(F)cc4)c3C=C1CC[C@@]2(O)CCc1cc(C)ccn1: 82%
24) CC[C@]12Cc3cnn(-c4ccccc4)c3C=C1CC[C@@]2(O)CCc1ccc(F)cc1C(N)=O: 75%
25) CC[C@]12Cc3cnn(-c4ccc(F)cc4)c3C=C1CC[C@@]2(O)CC(O)c1ncccc1Cl (some centres unmarked): 79%
26) NC(=O)Cc1c(F)cccc1CC[C@]1(O)CCC2=Cc3c(cnn3-c3ccc(F)cc3)C[C@@]21C1CC1: 72%
27) OC(C[C@]1(O)CCC2=Cc3c(cnn3-c3ccc(F)cc3)C[C@@]21C1CC1)c1ccc(F)cn1 (single isomer, unassigned) [Example 79a]: 41%
28) CC[C@]12Cc3cnn(-c4ccc(F)cc4)c3C=C1CC[C@@]2(O)CC(O)c1ncccc1F (some centres unmarked): 64%
29) CC[C@]12Cc3cnn(-c4ccc(F)cc4)c3C=C1CC[C@@]2(O)CCc1cc(F)ccn1: 80%
